biological target: UniProt:P05067; test: Inhibition of amyloid beta (1 to 42 ) (unknown origin) self aggregation measured after 24 hrs by thioflavin-T fluorescence method
Sequence (P05067 whole entry): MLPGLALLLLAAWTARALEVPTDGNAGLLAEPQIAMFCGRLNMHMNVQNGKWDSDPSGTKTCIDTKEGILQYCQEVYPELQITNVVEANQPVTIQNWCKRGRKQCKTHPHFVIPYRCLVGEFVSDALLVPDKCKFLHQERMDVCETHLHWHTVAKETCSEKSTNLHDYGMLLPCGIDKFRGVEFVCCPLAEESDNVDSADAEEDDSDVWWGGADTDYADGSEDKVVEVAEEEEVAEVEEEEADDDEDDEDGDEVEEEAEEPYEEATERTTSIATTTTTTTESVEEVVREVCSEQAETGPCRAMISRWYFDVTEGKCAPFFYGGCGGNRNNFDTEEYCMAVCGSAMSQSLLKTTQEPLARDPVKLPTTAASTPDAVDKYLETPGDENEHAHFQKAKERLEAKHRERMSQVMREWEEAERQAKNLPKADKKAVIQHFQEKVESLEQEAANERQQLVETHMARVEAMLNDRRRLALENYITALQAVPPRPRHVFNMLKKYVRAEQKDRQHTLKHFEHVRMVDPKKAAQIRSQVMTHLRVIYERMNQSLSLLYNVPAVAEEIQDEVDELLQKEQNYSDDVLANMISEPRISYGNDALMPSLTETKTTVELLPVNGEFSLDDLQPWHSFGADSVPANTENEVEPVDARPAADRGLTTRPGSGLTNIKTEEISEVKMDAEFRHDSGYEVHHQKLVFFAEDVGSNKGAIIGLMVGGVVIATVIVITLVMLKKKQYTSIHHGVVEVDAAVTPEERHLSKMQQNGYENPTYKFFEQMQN
measurement name: pIC50
Please note pIC50 is a logarithmic value: minus log10 of concentration in mol/L. Answer with that number alone.

Qu. API: value(readout= pIC50, system= UniProt:P05067, query= "Cc1ccc(-n2cc(C(=O)Nc3ccc(C(O)(C(F)(F)F)C(F)(F)F)cc3)nn2)cc1C" )
Ans. 5.34
